System: osteoclast marker genes (Atp6v0d2, Trap, Mmp9, Cathepsin K, Dcstamp, and Oscar) in RANKL-stimulated RAW 264.7 cells
Test Name: Real-time RT-PCR of osteoclast marker gene expression
Assay type: cell-based, Mouse
Run Conditions: RAW264.7 cells, RANKL + compound 400 nM
Reported Metric: RANKL-mediated upregulation of osteoclast marker genes

- Compound: "C[C@H](O)CNC(=O)c1ccc2c(c1)nc(Nc1nc3ccc(OC(F)(F)F)cc3s1)n2C [HPP-3]"
  Value Observed: "suppressed"
- Compound: "CN(C)C(=O)CNC(=O)c1ccc2c(c1)nc(Nc1nc3ccc(C(F)(F)F)cc3s1)n2C [HPP-2]"
  Value Observed: "suppressed"
- Compound: "Cn1c(Nc2nc3ccc(C(F)(F)F)cc3s2)nc2cc(C(=O)NCCOCCO)ccc21 [HPP-4]"
  Value Observed: "suppressed"
